- System: Escherichia coli
- testMethodNotes: minimum inhibitory concentration (MIC)
- condition: isolate (source animal id): 167
observable: minimum inhibitory concentration

Examples with answers:
[[record]]
cpdsmiles = "CC[C@H]1OC(=O)C[C@@H](O)[C@H](C)[C@@H](O[C@@H]2O[C@H](C)[C@@H](O)[C@H](N(C)C)[C@H]2O)[C@@H](CCN2C[C@H](C)C[C@H](C)C2)C[C@@H](C)C(=O)/C=C/C(C)=C/[C@@H]1CO[C@@H]1O[C@H](C)[C@@H](O)[C@@H](OC)[C@H]1OC"
observable = "minimum inhibitory concentration"
testresult = "> 16 µg/mL"

[[record]]
cpdsmiles = "CCCN1C[C@H](C)[C@@H](O)[C@](C)(O)[C@@H](CC)OC(=O)[C@H](C)[C@@H](O[C@H]2C[C@@](C)(OC)[C@@H](O)[C@H](C)O2)[C@H](C)[C@@H](O[C@@H]2O[C@H](C)C[C@H](N(C)C)[C@H]2O)[C@](C)(O)C[C@H]1C"
observable = "minimum inhibitory concentration"
testresult = "8 µg/mL"

[[record]]
cpdsmiles = "COc1cc(Cc2cnc(N)nc2N)cc(OC)c1OC.Cc1cc(NS(=O)(=O)c2ccc(N)cc2)no1"
observable = "minimum inhibitory concentration"
testresult = "≤ 2 µg/mL"


Please report minimum inhibitory concentration for every entry that follows.
1. CN1C[C@@H]2C[C@H]1CN2c1cc2c(cc1F)c(=O)c(C(=O)O)cn2C1CC1
2. NC[C@@H]1O[C@H](O[C@H]2[C@@H](O)[C@H](O[C@@H]3[C@@H](O)[C@H](N)C[C@H](N)[C@H]3O[C@H]3O[C@H](CN)[C@@H](O)[C@H](O)[C@H]3N)O[C@@H]2CO)[C@H](N)[C@@H](O)[C@@H]1O
3. COc1cc(NS(=O)(=O)c2ccc(N)cc2)nc(OC)n1
4. CN(C)[C@@H]1C(O)=C(C(N)=O)C(=O)[C@@]2(O)C(O)=C3C(=O)c4c(O)cccc4[C@@](C)(O)[C@H]3C[C@@H]12

OUT:
["≤ 0.12 µg/mL", "≤ 4 µg/mL", "> 256 µg/mL", "> 8 µg/mL"]
